Measured values drawn from paper PMC2756588 for this set.

# system: T1, Lsb4, P32793
# T1 sequence (P32793 402-468, looked up): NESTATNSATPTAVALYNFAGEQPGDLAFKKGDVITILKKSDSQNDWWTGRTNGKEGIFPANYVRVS
# method notes: SPOT array
# condition context: median of control spots 397
Field: SPOT intensity. Provide a value for each of the binders that follow.
Kindly provide the number alone.

Fill blank: measured SPOT intensity of the binder KDKSRPPRPPPKPLH is ____.
114

Fill blank: measured SPOT intensity of the binder LEFRAILFIPKRAPF is ____.
18

Fill blank: measured SPOT intensity of the binder STKKPRPPVKSKPKH is ____.
0

Fill blank: measured SPOT intensity of the binder QNTPPLPPKPKSPHL is ____.
231

Fill blank: measured SPOT intensity of the binder RRRDFGAPANKRPRR is ____.
4

Fill blank: measured SPOT intensity of the binder KKIRLIFTYPSTVGR is ____.
28

Fill blank: measured SPOT intensity of the binder GRLRPKRIAPWHLIQ is ____.
0

Fill blank: measured SPOT intensity of the binder KKAPPPVVKPKPRNF is ____.
0

Fill blank: measured SPOT intensity of the binder RLSFFFPLDPAYIRN is ____.
0
